- protocol notes: Compound cytotoxicity, XTT-based colorimetric assay
- Assay type: cell-based
- measurement conditions: human; uninfected MT2 cells, day 4, XTT; read-out: CC50
Some molecules, each annotated with its measured CC50 at 4 days.

INSERT INTO assay_data (molecule, readout_label, readout_value) VALUES
  ('Cc1cc(C2(F)CCC(F)(F)CC2)nc2nc([C@H](Cc3cc(F)cc(F)c3)NC(=O)Cn3nc(C(F)F)c4c3C(F)(F)[C@@H]3C[C@H]43)n(-c3ccc(Cl)c4c(NS(C)(=O)=O)nn([C@H](C)CN5C[C@@H](C)O[C@@H](C)C5)c34)c(=O)c12 (atropisomer, axis not shown; (P))', 'CC50 at 4 days', '> 20 nM');

Prompt line: What value of measured CC50 at 4 days is listed for Cc1cc(C2(F)CCC(F)(F)CC2)nc2nc([C@H](Cc3cc(F)cc(F)c3)NC(=O)Cn3nc(C(F)F)c4c3C(F)(F)[C@@H]3C[C@H]43)n(-c3ccc(Cl)c4c(NS(C)(=O)=O)nn([C@@H](C)CN5C[C@@H](C)O[C@@H](C)C5)c34)c(=O)c12 (atropisomer, axis not shown; (P)) ?
Response line: > 20 nM

Prompt line: Further, for CS(=O)(=O)Nc1nn(CCN2CCCC(F)(F)C2)c2c(-n3c([C@H](Cc4cc(F)cc(F)c4)NC(=O)Cn4nc(C(F)F)c5c4C(F)(F)[C@@H]4C[C@H]54)nc4nc(C5CCC(F)(F)CC5)cc(C(F)F)c4c3=O)ccc(Cl)c12 (atropisomer, axis not shown; (P)) ?
Response line: > 50 nM

====

- protocol notes: Compound cytotoxicity, XTT-based colorimetric assay
- Format: cell-based
- measurement conditions: human; uninfected MT2 cells, day 4, XTT; read-out: CC50
readout label: CC50 at 4 days

Here's what some known entries look like.
INSERT INTO results (compound, readout_value) VALUES
  ('CS(=O)(=O)Nc1nn(CCN2CC3C(C2)C(F)(F)C3(F)F)c2c(-n3c([C@H](Cc4cc(F)cc(F)c4)NC(=O)Cn4nc(C(F)F)c5c4C(F)(F)[C@@H]4C[C@H]54)nc4nc(C5CCC(F)(F)CC5)ccc4c3=O)ccc(Cl)c12 (stereo partly shown)', '> 50 nM'),
  ('Cc1cc(C2(F)CCC(F)(F)CC2)nc2nc([C@H](Cc3cc(F)cc(F)c3)NC(=O)Cn3nc(C(F)F)c4c3C(F)(F)[C@@H]3C[C@H]43)n(-c3ccc(Cl)c4c(NS(C)(=O)=O)nn(CCN5CCOCC5(C)C)c34)c(=O)c12 (atropisomer, axis not shown; (P))', '> 20 nM'),
  ('Cc1cc(C2(C)CCC(F)(F)CC2)nc2nc([C@H](Cc3cc(F)cc(F)c3)NC(=O)Cn3nc(C(F)F)c4c3C(F)(F)[C@@H]3C[C@H]43)n(-c3ccc(Cl)c4c(NS(C)(=O)=O)nn(CCN5C[C@H](F)C[C@H](F)C5)c34)c(=O)c12 (atropisomer, axis not shown; (P))', '> 20 nM'),
  ('CC1(C)CN(CCn2nc(NS(C)(=O)=O)c3c(Cl)ccc(-n4c([C@H](Cc5cc(F)cc(F)c5)NC(=O)Cn5nc(C(F)F)c6c5C(F)(F)[C@@H]5C[C@H]65)nc5nc(C6CCC(F)(F)CC6)ccc5c4=O)c32)CC(C(F)(F)F)O1 (stereo partly shown)', '> 50 nM'),
  ('C[C@@H]1CN(CCn2nc(NS(C)(=O)=O)c3c(Cl)ccc(-n4c([C@H](Cc5cc(F)cc(F)c5)NC(=O)Cn5nc(C(F)F)c6c5C(F)(F)[C@@H]5C[C@H]65)nc5nc(C6CCC(F)(F)CC6)ccc5c4=O)c32)CCO1 (atropisomer, axis not shown; (P))', '> 50 nM');

Prompt line: Quick one: CC50 at 4 days for CS(=O)(=O)Nc1nn(CCN2CCC(F)(F)C2)c2c(-n3c([C@H](Cc4cc(F)cc(F)c4)NC(=O)Cn4nc(C(F)F)c5c4C(F)(F)[C@@H]4C[C@H]54)nc4nc(C5CCC(F)(F)CC5)cc(C(F)F)c4c3=O)ccc(Cl)c12 (atropisomer, axis not shown; (P)) ?
Response line: > 50 nM

Prompt line: Same question for COCCCn1nc(NS(C)(=O)=O)c2c(Cl)ccc(-n3c([C@H](Cc4cc(F)cc(F)c4)NC(=O)Cn4nc(C(F)F)c5c4C(F)(F)[C@@H]4C[C@H]54)nc4nc(C5CCC(F)(F)CC5)cc(CN5CC(C)(C)OC(C)(C)C5)c4c3=O)c21 (atropisomer, axis not shown; (P)) please.
Response line: > 20 nM

Prompt line: Follow-up item: Cc1cc(C2(F)CCC(F)(F)CC2)nc2nc([C@H](Cc3cc(F)cc(F)c3)NC(=O)Cn3nc(C(F)F)c4c3C[C@@H]3C[C@H]43)n(-c3ccc(Cl)c4c(NS(C)(=O)=O)nn(CCN5C[C@H](F)C[C@H](F)C5)c34)c(=O)c12 (atropisomer, axis not shown; (P))
Response line: > 20 nM

Prompt line: Same again, this time with Cc1cc(C2CCC(F)(F)CC2)nc2nc([C@H](Cc3cc(F)cc(F)c3)NC(=O)Cn3nc(C4CC4)c4c3C[C@@H]3C[C@H]43)n(-c3ccc(Cl)c4c(NS(C)(=O)=O)nn(CCN5CCOC(C)(C)C5)c34)c(=O)c12 (atropisomer, axis not shown; (P))
Response line: > 20 nM

Prompt line: Input Cc1cc(C2(F)CCC(F)(F)CC2)nc2nc([C@H](Cc3cc(F)cc(F)c3)NC(=O)Cn3nc(C(F)(F)F)c4c3C(F)(F)[C@@H]3C[C@H]43)n(-c3ccc(Cl)c4c(NS(C)(=O)=O)nn(CCN5C[C@H](F)C[C@H](F)C5)c34)c(=O)c12 (atropisomer, axis not shown; (P))
Response line: > 20 nM

====

- protocol notes: Compound cytotoxicity, XTT-based colorimetric assay
- Format: cell-based
- measurement conditions: human; uninfected MT2 cells, day 4, XTT; read-out: CC50
readout label: CC50 at 4 days

Completed entries (count: 5):
INSERT INTO results (compound, readout_label, readout_value) VALUES
  ('Cc1cc(C2CCC(F)(F)CC2)nc2nc([C@H](Cc3cc(F)cc(F)c3)NC(=O)Cn3nc(C4CC4)c4c3C[C@@H]3C[C@H]43)n(-c3ccc(Cl)c4c(NS(C)(=O)=O)nn(CCN5CC(F)(F)C5)c34)c(=O)c12 (atropisomer, axis not shown; (P)) [Example 283]', 'CC50 at 4 days', '> 50 nM'),
  ('Cc1cc(C2(F)CCC(F)(F)CC2)nc2nc([C@H](Cc3cc(F)cc(F)c3)NC(=O)Cn3nc(C(F)F)c4c3C(F)(F)[C@@H]3C[C@H]43)n(-c3ccc(Cl)c4c(NS(C)(=O)=O)nn([C@H](C)C(=O)N5C[C@@H](C)O[C@@H](C)C5)c34)c(=O)c12 (atropisomer, axis not shown; (P)) [Example 743]', 'CC50 at 4 days', '> 20 nM'),
  ('COCCCn1nc(NS(C)(=O)=O)c2c(Cl)ccc(-n3c([C@H](Cc4cc(F)cc(F)c4)NC(=O)Cn4nc(C(F)F)c5c4C(F)(F)[C@@H]4C[C@H]54)nc4nc(C5CCC(F)(F)CC5)cc(CN5CC(F)(F)C5)c4c3=O)c21 (atropisomer, axis not shown; (P)) [Example 538]', 'CC50 at 4 days', '> 20 nM'),
  ('Cc1cc(C2(F)CCC(F)(F)CC2)nc2nc([C@H](Cc3cc(F)cc(F)c3)NC(=O)Cn3nc(C(F)F)c4c3C(F)(F)[C@@H]3C[C@H]43)n(-c3ccc(Cl)c4c(NS(C)(=O)=O)nn(C[C@@H](C)N5C[C@@H](C)O[C@@H](C)C5)c34)c(=O)c12 (atropisomer, axis not shown; (P)) [Example 720]', 'CC50 at 4 days', '> 20 nM'),
  ('Cc1cc(C2(F)CCC(F)(F)CC2)nc2nc([C@H](Cc3cc(F)cc(F)c3)NC(=O)Cn3nc(C4CC4)c4c3C[C@@H]3C[C@H]43)n(-c3ccc(Cl)c4c(NS(C)(=O)=O)nn([C@H](C)C(=O)N5C[C@@H](C)O[C@@H](C)C5)c34)c(=O)c12 (relative stereo) [Example 744]', 'CC50 at 4 days', '> 20 nM');

Prompt line: Quick one: CC50 at 4 days for COCCCn1nc(NS(C)(=O)=O)c2c(Cl)ccc(-n3c([C@H](Cc4cc(F)cc(F)c4)NC(=O)Cn4nc(C(F)F)c5c4C(F)(F)[C@@H]4C[C@H]54)nc4nc(C5CCC(F)(F)CC5)ccc4c3=O)c21 (atropisomer, axis not shown; (P)) [Example 623] ?
Response line: > 100 nM

Prompt line: Now give it for CS(=O)(=O)Nc1nn(CCN2CCC(F)(F)CC2)c2c(-n3c([C@H](Cc4cc(F)cc(F)c4)NC(=O)Cn4nc(C(F)F)c5c4C(F)(F)[C@@H]4C[C@H]54)nc4nc(C5CCC(F)(F)CC5)cc(C5CC5)c4c3=O)ccc(Cl)c12 (atropisomer, axis not shown; (P)) [Example 321] too.
Response line: > 50 nM

Prompt line: What do you get for Cc1cc(C2CCC(F)(F)CC2)nc2nc([C@H](Cc3cc(F)cc(F)c3)NC(=O)Cn3nc(C(F)(F)F)c4c3C(F)(F)[C@@H]3C[C@H]43)n(-c3ccc(Cl)c4c(NS(C)(=O)=O)nn(CCN5CCOCC5)c34)c(=O)c12 (atropisomer, axis not shown; (P)) [Example 116] ?
Response line: > 50 nM

Prompt line: And for Cc1cc(C2(F)CCC(F)(F)CC2)nc2nc([C@H](Cc3cc(F)cc(F)c3)NC(=O)Cn3nc(C4CC4)c4c3C[C@@H]3C[C@H]43)n(-c3ccc(Cl)c4c(NS(C)(=O)=O)nn(CCN5C[C@@H](C)O[C@@H](C)C5)c34)c(=O)c12 (atropisomer, axis not shown; (P)) [Example 503] ?
Response line: > 20 nM

Prompt line: Same question for Cc1cc(C2CCC(F)(F)CC2)nc2nc([C@H](Cc3cc(F)cc(F)c3)NC(=O)Cn3nc(C4CC4)c4c3C[C@@H]3C[C@H]43)n(-c3ccc(Cl)c4c(NS(C)(=O)=O)nn(CCN5CCO[C@H](C(C)C)C5)c34)c(=O)c12 (atropisomer, axis not shown; (P)) [Example 457] please.
Response line: > 20 nM
